test: Secondary qRT-PCR qHTS assay for selected Zika virus inhibitors; conditions: Vero cells ZIKV infection, NS5 RNA qRT-PCR, 24 h; series mostly up to 32.6 µM
Inconclusive results are not listed. The source made the active and inactive calls. Calls follow the shape of the dose curve; as a rule, active = well fitted inhibition curve with a large enough effect; inconclusive = small, poorly fitted or top-dose-only effect; inactive = flat fitted curve, though single readings scatter.
Outcome (select one): Y = active, N = inactive

Would you please look over these solved cases?
{"columns": ["COMPOUND", "QUALITATIVE LABEL"],
 "data": [
  ["O=C(N/N=C/c1ccc(O)c(O)c1)c1cc2ccccc2cc1O", "N"],
  ["CCOc1c2c(c(OCC)c3ccccc13)C(=O)N(c1ccc(CC(=O)NS(=O)(=O)c3ccccc3)cc1)C2", "N"],
  ["O=C(O)c1ccc(-n2nc(-c3ccccc3O)nc2-c2ccccc2O)cc1", "N"],
  ["O=C(O)Cc1cccc(OCCCN(Cc2cccc(C(F)(F)F)c2Cl)CC(c2ccccc2)c2ccccc2)c1", "Y"],
  ["O=C(O)C1(Cc2cccc(Nc3nccs3)n2)CCC(Oc2cccc(Cl)c2F)CC1 (stereo unspecified)", "N"]
]}

Query: Hello, I am checking results. What call was entered for O=C(O)c1ccc(O)c2ncc(N3CCCN(CCc4cccc5ccccc45)CC3)cc12 ?
Response: N

Query: Hello, I am checking results. What call was entered for C=C1c2cccc(O)c2C(O)=C2C(=O)[C@]3(O)C(O)=C(C(N)=O)C(=O)[C@@H](N(C)C)[C@@H]3[C@@H](O)[C@H]12 ?
Response: N

Query: Hello, I am checking results. What call was entered for COc1cc(/C=C/c2ccccc2)c(C(=O)O)c(O)c1CC=C(C)C ?
Response: N

Query: Hello, I am checking results. What call was entered for CN(Cc1ccc(C(=O)O)cc1)c1ccc(OCc2c(-c3c(Cl)cccc3Cl)noc2C2CC2)nc1C(F)(F)F ?
Response: Y

----------
experiment: Secondary qRT-PCR qHTS assay for selected Zika virus inhibitors; settings: Vero cells ZIKV infection, NS5 RNA qRT-PCR, 24 h; series mostly up to 32.6 µM
Inconclusive results are not listed. Activity calls are given as the source filed them. Calls follow the shape of the dose curve; as a rule, active = well fitted inhibition curve with a large enough effect; inconclusive = small, poorly fitted or top-dose-only effect; inactive = flat fitted curve, though single readings scatter.
Outcome (select one): active, inactive

Would you please look over these solved cases?
{"columns": ["MOLECULE", "QUALITATIVE LABEL"],
 "data": [
  ["CO[C@H]1C[C@@H](O[C@@H]2/C(C)=C/C[C@@H]3C[C@@H](C[C@]4(CC[C@H](C)[C@@H](C5CCCCC5)O4)O3)OC(=O)[C@@H]3C=C(C)/C(=N/O)[C@H]4OC/C(=C\\C=C\\[C@@H]2C)[C@]43O)O[C@@H](C)[C@H]1O", "active"],
  ["Oc1c(Cl)cc(Cl)c(Cl)c1Cc1c(O)c(Cl)cc(Cl)c1Cl", "active"]
]}

Query: Hello, I am checking results. What call was entered for N#CC1C(=O)Nc2scc(-c3ccc(-c4ccccc4O)cc3)c2C1=O (stereo unspecified) ?
Response: inactive

Query: Hello, I am checking results. What call was entered for O=C(O)c1cccc(-c2ccc(-c3cn(C(=O)N4CCCCC4Cc4ccccc4)nn3)cc2)c1 (stereo unspecified) ?
Response: inactive

Query: Hello, I am checking results. What call was entered for O=S(=O)(Nc1cc(Cl)c(Oc2cnc3ccccc3c2)c(Cl)c1)c1ccc(Cl)cc1Cl ?
Response: active

Query: Hello, I am checking results. What call was entered for N#CC1(c2cccc(C(=O)Nc3cc(Oc4ccc5nc(NC(=O)C6CC6)sc5n4)ccc3F)c2Cl)CC1 ?
Response: inactive
